Recorded collision cross section (N2) by entry
# Protocol conditions: [M+H]+; instrument: TW; calibrated with polyalanine and drug standards
Give just the numeric value; Å² need not be written.

The following compounds have reported results that may help.
[[record]]
compound = "O=c1c(-c2ccc(O)cc2)coc2cc(O)cc(O)c12"
assay_readout = "collision cross section (N2)"
uom = "Å²"
value = 156.5

[[record]]
compound = "C#C[C@]1(OC(C)=O)CC[C@H]2[C@@H]3CCC4=CC(=O)CC[C@@H]4[C@H]3CC[C@@]21C [NORETHINDRONE ACETATE]"
assay_readout = "collision cross section (N2)"
uom = "Å²"
value = 186.3

[[record]]
compound = "S=c1[nH]c2ccccc2s1"
assay_readout = "collision cross section (N2)"
uom = "Å²"
value = 126.4


With those in mind, consider the next compound.
Consider the compound shown here: Cn1c(=O)[nH]c2ncn(C)c2c1=O What is its recorded collision cross section (N2)?
132.4
